# maps each entry to its EC50
- studySystem: E. coli HslV peptidase (Escherichia coli, UniProt P0A7B8)
- Construct: His tag (inferred from Ni-chelating purification and the pET20B+ vector); made in house; host or cells: E. coli BL21 (DE3), pET20B+ vector
- Sequence (P0A7B8 2-176): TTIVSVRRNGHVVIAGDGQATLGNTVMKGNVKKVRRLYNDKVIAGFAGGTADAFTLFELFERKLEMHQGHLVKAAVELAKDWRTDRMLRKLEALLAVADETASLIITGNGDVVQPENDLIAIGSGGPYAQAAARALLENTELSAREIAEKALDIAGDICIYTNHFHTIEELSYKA
- procedureSummary: biochemical
- particulars: recombinant E. coli HslV; substrate Z-Gly-Gly-Leu-AMC; in the absence of HslU; ED50 = concentration giving half maximal reaction velocity, from Vi/Vo plots; read-out: E. coli HslV activation (ED50 in μM)

{"smilesCode": "O=C(N/N=C/c1cc(=O)c2ccccc2o1)c1ccccc1", "studySystem": "E. coli HslV peptidase (Escherichia coli, UniProt P0A7B8)", "EC50 [µM]": 1.3}
{"smilesCode": "O=c1c2ccccc2nc(-c2ccc([N+](=O)[O-])cc2)n1/N=C/c1c(O)ccc2ccccc12", "studySystem": "E. coli HslV peptidase (Escherichia coli, UniProt P0A7B8)", "EC50 [µM]": 0.9}
